- system: T1, full-length untagged human GPNMB expressed on cells (human, UniProt Q14956 23-572)
- T1 construct: also used here for GPNMB on human monocyte-derived macrophages in the functional assays; also called huGPNMB; Freestyle293-huGPNMB+
- T1 sequence: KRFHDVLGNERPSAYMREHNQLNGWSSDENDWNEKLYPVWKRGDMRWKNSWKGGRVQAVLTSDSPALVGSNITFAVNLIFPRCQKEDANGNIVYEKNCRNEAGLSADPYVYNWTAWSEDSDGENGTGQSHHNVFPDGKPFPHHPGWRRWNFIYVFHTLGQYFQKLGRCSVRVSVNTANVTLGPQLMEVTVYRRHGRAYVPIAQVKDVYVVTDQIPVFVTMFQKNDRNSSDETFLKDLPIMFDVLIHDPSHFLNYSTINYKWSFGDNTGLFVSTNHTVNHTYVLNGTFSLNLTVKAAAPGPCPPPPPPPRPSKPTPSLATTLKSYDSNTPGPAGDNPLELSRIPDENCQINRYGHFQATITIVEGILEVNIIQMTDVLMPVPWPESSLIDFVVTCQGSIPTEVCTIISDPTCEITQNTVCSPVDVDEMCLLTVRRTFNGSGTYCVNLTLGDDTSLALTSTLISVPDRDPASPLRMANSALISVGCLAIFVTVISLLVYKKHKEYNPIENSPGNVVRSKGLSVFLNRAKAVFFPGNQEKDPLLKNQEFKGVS
- assayName: FACS titration, FS293-huGPNMB+ cells
Below, each entry is listed alongside its reported pEC50.
As a rule, pEC50 stands for the negative log10 of the concentration, concentration in M.

Would you please look over these solved cases?
Data request: Fill in pEC50 for record anti-GPNMB antibody GPN-48 (antibody, human IgG1, V domains shown, chimeric) VH: QVQLQQSGPELVKPGASVKLSCRASGYGFSSFWMNWVKQRPGKGLEWIGRIYPGKGDTLYNGKFKDKATLTADESSSTAYMQLSSLTSEDSAVYFCARSIYYYDYWYFDVWDTGTTVTVSS VL: DIVMTQSHKFMSTSVGDRVNITCKASQDVNSAIAWYQQKPGQSPKLLIYSASYRFIGVPDRFTGSGSGTGFTFTISSVQAEDLAVYYCQQHYTTPLTFGAGTKLELK
Data returned: 7.72

Data request: Fill in pEC50 for record anti-GPNMB antibody GPN-03 (antibody, human IgG1, V domains shown, chimeric) VH: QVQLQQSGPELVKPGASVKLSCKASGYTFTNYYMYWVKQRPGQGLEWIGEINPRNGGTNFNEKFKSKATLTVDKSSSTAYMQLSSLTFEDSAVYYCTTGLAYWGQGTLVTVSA VL: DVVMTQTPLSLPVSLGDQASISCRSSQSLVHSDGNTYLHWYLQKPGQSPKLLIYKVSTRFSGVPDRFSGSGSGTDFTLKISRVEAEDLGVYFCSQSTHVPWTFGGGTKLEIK
Data returned: 8.47

Data request: Fill in pEC50 for record anti-GPNMB antibody GPN-06 (antibody, human IgG1, V domains shown, chimeric) VH: QVQLQQSGAELVKPGASVKLSCKASGYTFTNYYMYWVKQRPGQGLEWIGEINTRNGGTNFNEKFKSKATLTVDKSSSTAYMQLSSLTSEDSAVYYCTTGFAYWGQGTLVTVSA VL: DIQMTQSPASLSASVGETVTITCRASENIYSYLVWYQQNQGKSPQLLVYNAKTLAEGVPSRFSGSGSGTQFSLKINSLQPEDFGTYYCQHHYGTPFTFGSGTKLEIK
Data returned: 8.79

Data request: Fill in pEC50 for record anti-GPNMB antibody GPN-24 (antibody, human IgG1, V domains shown, chimeric) VH: QVQLQQPGAELVKPGASVKMSCKASGYTFTSYWITWVKQRPGQGLEWIGDIHPGSGRSNYNEKFKNKATLNVDTSSSTVYMQLSSLTSEDSAVYYCARDYLFAYWGQGTLVTVSA VL: DIQMTQSPSSLSASLGERVSLTCRASQEISGYLSWLQQKPDGTIKRLIYSTSTLDSGVPKRFSGSRSGSDYSLTISSLESEDFADYYCLQYTSSPPTFGGGTKLEIK
Data returned: 9.66

Others:
Data request: Fill in pEC50 for record anti-GPNMB antibody GPN-11 (antibody, human IgG1, V domains shown, chimeric) VH: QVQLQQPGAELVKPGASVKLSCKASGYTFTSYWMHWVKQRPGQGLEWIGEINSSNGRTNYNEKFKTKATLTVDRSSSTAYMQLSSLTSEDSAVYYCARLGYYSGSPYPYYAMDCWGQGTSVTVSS VL: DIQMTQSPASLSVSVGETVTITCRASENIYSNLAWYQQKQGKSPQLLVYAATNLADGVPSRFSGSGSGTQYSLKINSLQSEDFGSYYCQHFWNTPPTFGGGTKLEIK
Data returned: 9.52
